target: ETA Receptor (Rattus norvegicus); construct: endogenous in cells; host or cells: MMQ rat pituitary cells (membranes); test: [125I]ET-1 binding to membranes from MMQ cells (ETA receptor binding assay, Table 4); conditions: test compound at 1 μM; 0.1 nM [125I]ET-1, MMQ cell membranes, 4 hours at 25° C.; read-out: % Inhibition of ETA at 1 μM
assay_readout: inhibition at 1 µM (%)

Quick one: inhibition at 1 µM for CCCCN(CCCCN)C(=O)CN1CC(c2ccc3c(c2)OCO3)C(C(=O)O)C1c1ccc(OC)cc1 (stereo not shown) [compound 529] ?
98.1

Quick one: inhibition at 1 µM for CCCCN(CCCC)C(=O)CN1CC(c2cc(OC)c3c(c2)OCO3)C(C(=O)O)C1CCC1OCCO1 (stereo not shown) [compound 509] ?
100

Quick one: inhibition at 1 µM for CCCCN(CCCC)C(=O)CN1C[C@H](c2ccc3c(c2)OCO3)[C@@H](C(=O)O)[C@@H]1CCN1CCCC1=O [compound 520] ?
97.4

Quick one: inhibition at 1 µM for CCCC(CCC)N(C(=O)CN1C[C@H](c2ccc3c(c2)OCO3)[C@@H](C(=O)O)[C@@H]1CCN1CCCC1=O)c1ccc(F)c(C)c1 [compound 521] ?
100

* * *

Target: ETA Receptor (Rattus norvegicus, UniProt P26684)
Construct: endogenous in cells; host or cells: MMQ rat pituitary cells (membranes)
Sequence (P26684 21-426): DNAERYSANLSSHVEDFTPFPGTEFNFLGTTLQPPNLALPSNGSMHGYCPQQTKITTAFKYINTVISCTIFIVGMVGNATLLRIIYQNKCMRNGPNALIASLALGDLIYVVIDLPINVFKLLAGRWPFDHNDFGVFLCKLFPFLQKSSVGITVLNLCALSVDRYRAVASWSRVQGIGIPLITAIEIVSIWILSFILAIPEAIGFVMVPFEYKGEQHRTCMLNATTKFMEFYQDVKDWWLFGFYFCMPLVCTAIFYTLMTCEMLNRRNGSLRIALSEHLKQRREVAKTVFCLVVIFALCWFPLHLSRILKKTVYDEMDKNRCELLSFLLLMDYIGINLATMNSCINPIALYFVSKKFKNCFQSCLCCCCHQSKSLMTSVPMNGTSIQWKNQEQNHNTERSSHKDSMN
Assay: [125I]ET-1 binding to membranes from MMQ cells (ETA receptor binding assay, Table 4)
Conditions: test compound at 1 μM; 0.1 nM [125I]ET-1, MMQ cell membranes, 4 hours at 25° C.
assay_readout: % Inhibition of ETA at 1 μM (%)

Quick one: % Inhibition of ETA at 1 μM for CCCCCC1C(C(=O)O)C(c2ccc3c(c2)OCO3)CN1CC(=O)N(CCCC)CCCC (stereo not drawn) [Example 92C] ?
107.4

Quick one: % Inhibition of ETA at 1 μM for COc1ccc(C2C(C(=O)O)C(c3ccc4c(c3)OCO4)CN2CC(=O)N(C2CCCCC2)C2CCCCC2)cc1 (stereo not drawn) [Example 311] ?
92.3

Quick one: % Inhibition of ETA at 1 μM for CCCCN(CCCC)C(=O)CN1CC(c2ccc3c(c2)CCO3)C(C(=O)O)C1c1ccc(C(C)(C)C)cc1 (stereo not drawn) [Example 154] ?
80.2

* * *

Molecular target: ETA receptor in MMQ cells (rET-A) (Rattus norvegicus)
Construct: endogenous in cells; host or cells: MMQ rat pituitary cells (membranes)
Assay: ETA/ETB selectivity: (125I)ET-1 competition binding, ETA assay in MMQ cell membranes (rET-A)
Settings: MMQ cell membranes; 0.1 nM (125I)ET-1; read-out: rET-A IC50
Experimental: The mixture was centrifuged at 1000×g for 10 min. The supernatant was collected and centrifuged at 60,000×g for 60 min. The precipitate was resuspended in 20 mM Tris, pH 7.4 containing protease inhibitor and centrifuged again. […] Protein content was determined by the Bio-Rad dye-binding protein assay. Binding assays were performed in 96-well microtiter plates pretreated with 0.1% BSA. […] Nonspecific binding was determined in the presence of 1 μM ET-1. […]
pIC50: −log10 of the molar value.
assay_readout: pIC50

Some solved cases for reference:
Request - read-out pIC50 | tested on ETA receptor in MMQ cells (rET-A) (Rattus norvegicus) | molecule CCCCN(CCCC)C(=O)CN1CC(c2ccc3c(c2)OCO3)C(C(=O)O)C1CC(C)(C)C=C(C)C (centres unmarked)
8.49

Request - read-out pIC50 | tested on ETA receptor in MMQ cells (rET-A) (Rattus norvegicus) | molecule CCCCN(C(=O)CN1CC(c2ccc3c(c2)OCO3)C(C(=O)O)C1c1ccc(OC)cc1)c1cccnc1 (centres unmarked)
8.92

a = CCCCN(CCCCN)C(=O)CN1CC(c2ccc3c(c2)OCO3)C(C(=O)O)C1c1ccc(OC)cc1 (centres unmarked)
b = CCCCN(CCCN)C(=O)CN1CC(c2ccc3c(c2)OCO3)C(C(=O)O)C1c1ccc(OC)cc1 (centres unmarked)
c = CCCCN(CCCO)C(=O)CN1CC(c2ccc3c(c2)OCO3)C(C(=O)O)C1c1ccc(OC)cc1 (centres unmarked)
d = CCCCN(CCCC)C(=O)CN1CC(c2cc(OC)c3c(c2)OCO3)C(C(=O)O)C1CC(C)(C)C1OCCO1 (centres unmarked)
Rank by pIC50 (largest to smallest). Sort and list the labels as requested.
c, d, a, b
(c: 9.38, d: 9.15, a: 8.44, b: 7.38)

These data points were gathered from patent US7208517B1.
